System: KM12
assayInfo: NCI tumour cell line growth inhibition, 48 h
Calls of active or inactive are those of the source. Cut-off read from the data, not from the text of the source: active = GI50 up to about 1.1 µM and inactive = higher.
Give measured GI50 for each item. Keep answers brief.

Worked examples, 4 compounds total:
[
  {
    "compound": "C/C=C\\C(CC(=O)OC)CC(=O)N(CCC1CN(S(=O)(=O)C(F)(F)F)c2ccccc21)Cc1ccc(OC)cc1OC (stereo not given)",
    "assayedSystem": "KM12",
    "GI50": "45.1 µM (inactive)"
  },
  {
    "compound": "C[C@]12CCC(O)CC1=CC[C@@H]1[C@@H]2CC[C@]2(C)C(=O)[C@H](n3ccnc3)C[C@@H]12 (stereo not given in full)",
    "assayedSystem": "KM12",
    "GI50": "38.9 µM (inactive)"
  },
  {
    "compound": "CCCCCCCCC/C=C1\\CCC(CN(C)C)C1=O (stereo not given)",
    "assayedSystem": "KM12",
    "GI50": "1.64 µM (inactive)"
  },
  {
    "compound": "O=S(=O)(O)SC/C=C\\CSS(=O)(=O)O",
    "assayedSystem": "KM12",
    "GI50": "21.4 µM (inactive)"
  }
]

Next:
[ask] // lookup GI50 | system=KM12 | key= O=C(Nc1ccccc1)c1cc(S(=O)(=O)n2ccnc2O)c(S)cc1Cl
[reply] > 100 µM (inactive)

* * *

Would you mind telling me the reported GI50 of each entry?
Tested on: A549
assayInfo: NCI tumour cell line growth inhibition, 48 h
The source made the active and inactive calls. Rule as the data show it: active = GI50 up to about 1.1 µM and inactive = higher.

Answered examples (5):
[
  {
    "compound": "CNC1=C(C)C(=O)C(O)=C([C@H](C)CCC=C(C)C)C1=O",
    "assayedSystem": "A549",
    "GI50": "20.3 µM (inactive)"
  },
  {
    "compound": "CCOC(=O)C12OC(OCC)(CC1(OCC)OCC)C1(CC1)C2=O (stereo unspecified)",
    "assayedSystem": "A549",
    "GI50": "> 100 µM (inactive)"
  },
  {
    "compound": "CC(=O)C(CN(Cc1ccccc1)Cc1ccccc1)C(c1ccccc1)c1c(O)c2ccccc2oc1=O (stereo unspecified)",
    "assayedSystem": "A549",
    "GI50": "> 100 µM (inactive)"
  },
  {
    "compound": "Brc1ccc(N2C[N+](c3ccc(Br)cc3)=NC(c3ccccc3)=N2)cc1",
    "assayedSystem": "A549",
    "GI50": "18.6 µM (inactive)"
  },
  {
    "compound": "Cc1nn(C(=O)c2ccc(Cl)cc2)c2c1C(/C=C/c1ccccc1)SC(=N)N2 (stereo unspecified)",
    "assayedSystem": "A549",
    "GI50": "> 10 µM (inactive)"
  }
]

Here's the next entry for you.
[ask] Which GI50 value is on record for COC(=O)C1=CC2OC1(C)C1(CC1)C2=O (stereo unspecified) ?
[reply] 24.3 µM (inactive)

* * *

Test system: HT-29
assayInfo: NCI tumour cell line growth inhibition, 48 h
The source made the active and inactive calls. Rule as the data show it: active = GI50 up to about 1.1 µM and inactive = higher.
Tick one outcome: active, inactive

Illustrative cases are given below, each with its answer.
[
  {
    "compound": "COC(=O)c1c/c(=N\\NC(=O)CC(=O)Nc2ccccc2OC)c2ccccc2o1",
    "assayedSystem": "HT-29",
    "cat": "inactive"
  },
  {
    "compound": "O=S(=O)(/C=C/c1ccc(F)cc1)Cc1ccc(CS(=O)(=O)/C=C/c2ccc(F)cc2)cc1",
    "assayedSystem": "HT-29",
    "cat": "inactive"
  },
  {
    "compound": "C[C@@H](NC(=O)Nc1cccc(C(=O)Nc2cc(C(C)(C)C)ccc2C(=O)O)n1)c1ccccc1",
    "assayedSystem": "HT-29",
    "cat": "inactive"
  },
  {
    "compound": "CN1C(=O)C23CC4=CC=CC(O)C4N2C(=O)C1(CO)SS3 (stereo not given)",
    "assayedSystem": "HT-29",
    "cat": "active"
  }
]

Now, please, on to the next compound.
[ask] Dear colleague, could you share the recorded outcome for C/C(=N\Nc1ccc([N+](=O)[O-])cc1)C(=O)N(C)Nc1ccccc1 when you have a moment?
[reply] inactive

Data origin, for the record: ChEMBL document CHEMBL1201862
